Tested on: TO-N3-2 (biotin conjugate)
Assay: pull-down binding Z-score (relative to library population); higher = stronger binding
Conditions: RNA library: Library-2
readout_label: pull-down binding Z-score
One number for each entry.

Sample records with pull-down binding Z-score:
[[record]]
record_sequence = "UUUUUCCAUUGUAAGUAAUGGGAAAA [hsa-mir-548f-5]"
measurement_target = "TO-N3-2 (biotin conjugate)"
observed_value = -1.67

[[record]]
record_sequence = "GUCAUUACUUUCAAUAGC [hsa-mir-548p]"
measurement_target = "TO-N3-2 (biotin conjugate)"
observed_value = -0.372

[[record]]
record_sequence = "GGCGUGGACAACUUGCU [hsa-mir-3943]"
measurement_target = "TO-N3-2 (biotin conjugate)"
observed_value = 0.912

[[record]]
record_sequence = "GAGCCUGUCACAUCUCCAGACUC [hsa-mir-3925]"
measurement_target = "TO-N3-2 (biotin conjugate)"
observed_value = 0.208

[[record]]
record_sequence = "UCACUGUGAACAGUCUCAGUCAGUGA [hsa-mir-183]"
measurement_target = "TO-N3-2 (biotin conjugate)"
observed_value = -0.631

[[record]]
record_sequence = "UGGGAGUGAUCCCAACAGCUGAGCUCCCU [hsa-mir-7106]"
measurement_target = "TO-N3-2 (biotin conjugate)"
observed_value = 0.529

[[record]]
record_sequence = "UGUGAGAGCUACUAAGUCUUAUA [hsa-mir-8076]"
measurement_target = "TO-N3-2 (biotin conjugate)"
observed_value = -0.596

[[record]]
record_sequence = "UAAUAUGCACUAUAAAUAUAUUG [hsa-mir-450a-1]"
measurement_target = "TO-N3-2 (biotin conjugate)"
observed_value = -1.33


List the reported pull-down binding Z-score of each sequence below.
1. GCAUAAAAACAACUUUUGGGGGACAGGUAUGUUUUCUUGC [hsa-mir-5047]
2. ACCUCCUGGCUUUUCCUCUGCAGCAUGGCUCGGACCUAGUGCAAUGUUUAAGCU [hsa-mir-6826]
3. AAGUGCCGUCCUCAUGAGCCCCU [hsa-mir-6769b]

[0.797, 0.769, 0.802]
